# Test system: CCRF-CEM leukemia
# method summary: NCI-60 one-dose screen, 48 h (100 = growth as untreated, 0 = no growth, -100 = all killed)
# cond: 10 µM unless noted
Compounds without any hit were thinned out: in the full panel of roughly 83,000, 20% have a hit.
Each record here notes measured growth.
measured attribute: growth (%)

[
  {
    "molecule": "CN(C)c1nc(-c2ccco2)n2nc(-c3ccc(Cl)cc3)cc2n1",
    "test value": 86.7
  },
  {
    "molecule": "O=C(N/N=C/c1ccc([N+](=O)[O-])o1)c1ccc(O)cc1",
    "test value": 34.6
  },
  {
    "molecule": "O=C(CSc1nc2c(n1Nc1ccccc1)-c1ccccc1SC2)Nc1nccs1",
    "test value": 84.5
  },
  {
    "molecule": "O=C1/C(=C/N2N=C(c3ccc(Cl)cc3)CC2c2ccccc2O)SC(=S)N1c1cccc(C(F)(F)F)c1 (centres undefined)",
    "test value": 30
  }
]

----------
# Tested on: OVCAR-4 ovarian
# method summary: NCI-60 one-dose screen, 48 h (100 = growth as untreated, 0 = no growth, -100 = all killed)
# cond: 10 µM unless noted
This is part of a sample that, as a whole, favours compounds with a hit. Of some 83,000 tested, about 20% had one in any assay.
Mark Fulfilled for growth under 40%, Not fulfilled if at or over.

[
  {
    "compound": "CN1C(=O)N(C)C2C1NN=c1s/c(=C\\c3ccsc3)c(=O)n12 (stereo not given)",
    "assigned label": "Not fulfilled"
  },
  {
    "compound": "CC(C)c1ccc(-c2cnc3nonc3n2)cc1",
    "assigned label": "Not fulfilled"
  },
  {
    "compound": "CC(=O)O[C@@H]1CC2C(C)(C)CCCC2(C)C2=C1C(=O)C(C(C)C)=CC2=O (stereo not given in full)",
    "assigned label": "Fulfilled"
  },
  {
    "compound": "COc1cc(C2C(C#N)=C(N)Oc3cc4c(cc32)OCO4)cc2c1OCO2 (stereo not given)",
    "assigned label": "Not fulfilled"
  },
  {
    "compound": "CC1OC(n2c3ccccc3c3c4c(c5c6ccccc6[nH]c5c32)C(=O)N(CCN[C@H]2CCC[C@@H]2N)C4=O)CC(O)C1O (stereo not given in full)",
    "assigned label": "Fulfilled"
  },
  {
    "compound": "O=C1c2cccc3cccc(c23)C(=O)N1CCCCCCCCCCN1C(=O)c2cccc3cccc(c23)C1=O",
    "assigned label": "Not fulfilled"
  },
  {
    "compound": "O=[N+]([O-])c1ccc(SSc2ccc([N+](=O)[O-])cc2Cl)c(Cl)c1",
    "assigned label": "Not fulfilled"
  },
  {
    "compound": "O=C1CCCN1C1CCN2CCCc3cccc1c32 (stereo not given)",
    "assigned label": "Not fulfilled"
  },
  {
    "compound": "CC(=O)C1CCC2C3CC(C)=C4CC(O)CCC4(C)C3CCC12C (stereo not given)",
    "assigned label": "Not fulfilled"
  },
  {
    "compound": "COc1ccc(C(=O)OC2C(OC3C(O)COC(O[C@H]4C[C@H]5[C@@H]6CC=C7C[C@@H](O)CC[C@]7(C)[C@H]6CC[C@]5(C)[C@H]4[C@H](C)C(=O)CCC(C)C)C3OC(N)=O)OCC(O)C2O)cc1 (stereo not given in full)",
    "assigned label": "Not fulfilled"
  },
  {
    "compound": "CC(C)(C)c1ccc(C(=O)Nc2sc3cc(O)ccc3c2C(N)=O)cc1",
    "assigned label": "Not fulfilled"
  },
  {
    "compound": "COc1ccc(/C=C/c2nc3ccccc3c(=O)n2-c2ccc(C#Cc3ccc(C(C)(C)C)cc3)cc2C)c(OC)c1",
    "assigned label": "Not fulfilled"
  },
  {
    "compound": "COc1cnc2c(c1)C(=O)c1c-2n(CCCNC(C)C)c(=O)c2cc(Cl)ccc12",
    "assigned label": "Fulfilled"
  },
  {
    "compound": "COc1cnc2c(c1)C(=O)c1c-2n(CCCN2CCNCC2)c(=O)c2cc(Cl)ccc12",
    "assigned label": "Not fulfilled"
  }
]
